- assayed.system: T1, Human B7-H4-Fc (Human B7H4 ECD, Fc_6His) (human)
- T1 construct: also called FcHis6 tagged human B7-H4
- T1 sequence (Q7Z7D3 whole entry, looked up): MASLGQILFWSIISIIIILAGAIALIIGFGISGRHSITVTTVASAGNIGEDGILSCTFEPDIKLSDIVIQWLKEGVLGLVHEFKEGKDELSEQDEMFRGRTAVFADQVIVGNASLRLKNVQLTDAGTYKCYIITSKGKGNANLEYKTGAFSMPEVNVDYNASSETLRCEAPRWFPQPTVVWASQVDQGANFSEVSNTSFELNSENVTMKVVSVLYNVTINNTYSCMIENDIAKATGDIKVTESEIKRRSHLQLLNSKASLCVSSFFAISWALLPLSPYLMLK
- assay.procedure: HTRF binding, human IgG1
observable: pEC50
Give bare numbers, as −log10 of the molar value.

Lab note: ZY0EOB-F05 human IgG1 (antibody, V domains shown) VH: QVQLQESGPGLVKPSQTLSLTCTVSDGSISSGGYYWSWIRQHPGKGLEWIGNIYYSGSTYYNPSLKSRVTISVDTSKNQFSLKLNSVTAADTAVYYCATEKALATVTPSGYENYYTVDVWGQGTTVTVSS VL: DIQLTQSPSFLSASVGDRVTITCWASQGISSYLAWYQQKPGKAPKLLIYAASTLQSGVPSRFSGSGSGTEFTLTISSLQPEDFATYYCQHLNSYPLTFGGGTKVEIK gave pEC50 of 9.82
